# experimental protocol: in vitro
# reported conditions: monkey, Exp 2 CC50 BGM
Provide the recorded CC50 for the entries that follow.
Answer in µM, number only, no unit symbol.

Exercise: Bench note: what CC50 did COc1ccc(N(Cc2ccc(F)cc2)C(=O)c2cccs2)cc1 show?
Key: 67.1

Exercise: Bench note: what CC50 did O=C(c1ccco1)N(Cc1ccc(C(F)(F)F)cc1)c1ccccc1 [Compound 19d] show?
Key: 94.1

Exercise: Bench note: what CC50 did CC(C)c1ccc(CN(C(=O)c2ccco2)c2ccccc2)cc1 [Compound 19h] show?
Key: 48.3

Exercise: Bench note: what CC50 did COc1ccc(N(Cc2ccc(C(F)(F)F)cc2)C(=O)c2ccco2)cc1 [Compound 19e] show?
Key: 56.9
